- experimental-protocol: self-splicing fitness, log relative to wild type (ln ratio); higher = more splicing; Tetrahymena group I intron in knt gene, E. coli kanamycin selection, DiMSum; sequences stand for … in CUCUCU…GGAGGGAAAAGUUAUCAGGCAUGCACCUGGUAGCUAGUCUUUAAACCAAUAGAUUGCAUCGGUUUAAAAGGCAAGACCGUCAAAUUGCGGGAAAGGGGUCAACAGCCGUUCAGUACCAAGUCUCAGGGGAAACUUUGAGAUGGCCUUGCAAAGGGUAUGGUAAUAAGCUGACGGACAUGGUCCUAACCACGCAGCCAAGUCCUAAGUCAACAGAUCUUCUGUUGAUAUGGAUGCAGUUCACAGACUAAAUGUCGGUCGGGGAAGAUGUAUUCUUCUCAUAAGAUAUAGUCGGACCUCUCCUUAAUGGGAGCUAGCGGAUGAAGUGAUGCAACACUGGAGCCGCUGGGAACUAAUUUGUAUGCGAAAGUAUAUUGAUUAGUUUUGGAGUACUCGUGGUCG;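 note: selection with 25 µg/mL kanamycin versus none on LB agar overnight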
- condition-summary: 37 °C
Label Y for high-side self-splicing fitness (ln) (at or above -1) and N for low-side self-splicing fitness (ln) (below it).

[
  {
    "seq-text": "UACCAGCAAUAUUACGGUGA",
    "assigned-label": "Y"
  },
  {
    "seq-text": "UCCUAGCAAUAUUACGACUG",
    "assigned-label": "N"
  },
  {
    "seq-text": "GUCCAGCAAUAUUACGUGUG",
    "assigned-label": "Y"
  },
  {
    "seq-text": "AACUAGCAAUAUUACGUAGC",
    "assigned-label": "N"
  },
  {
    "seq-text": "UGUCAGCAAUAUUACGUAUA",
    "assigned-label": "Y"
  },
  {
    "seq-text": "CAGCAGCAAUAUUACGAGCC",
    "assigned-label": "N"
  },
  {
    "seq-text": "UUCGAGCAAUAUUACGAAUC",
    "assigned-label": "N"
  },
  {
    "seq-text": "ACUUAGCAAUAUUACGGUGC",
    "assigned-label": "N"
  },
  {
    "seq-text": "CUGGAGCAAUAUUACGUUAC",
    "assigned-label": "N"
  },
  {
    "seq-text": "CGAAAGCAAUAUUACGGUUG",
    "assigned-label": "Y"
  },
  {
    "seq-text": "GCUAAGCAAUAUUACGAGAU",
    "assigned-label": "N"
  },
  {
    "seq-text": "UUGUAGCAAUAUUACGCGCG",
    "assigned-label": "Y"
  },
  {
    "seq-text": "CCCAAGCAAUAUUACGGGUU",
    "assigned-label": "N"
  },
  {
    "seq-text": "CUAAAGCAAUAUUACGGGCG",
    "assigned-label": "Y"
  },
  {
    "seq-text": "AGAUAGCAAUAUUACGUAGC",
    "assigned-label": "N"
  },
  {
    "seq-text": "AGCCAGCAAUAUUACGCGGG",
    "assigned-label": "N"
  },
  {
    "seq-text": "AUCUAGCAAUAUUACGUUUC",
    "assigned-label": "N"
  },
  {
    "seq-text": "CCAAAGCAAUAUUACGUGCG",
    "assigned-label": "Y"
  },
  {
    "seq-text": "CUGGAGCAAUAUUACGUUUU",
    "assigned-label": "N"
  },
  {
    "seq-text": "UUGGAGCAAUAUUACGAGGA",
    "assigned-label": "N"
  },
  {
    "seq-text": "CUGGAGCAAUAUUACGUCAA",
    "assigned-label": "N"
  },
  {
    "seq-text": "UCUGAGCAAUAUUACGGAGG",
    "assigned-label": "N"
  },
  {
    "seq-text": "ACAAAGCAAUAUUACGGGUA",
    "assigned-label": "Y"
  },
  {
    "seq-text": "CUGAAGCAAUAUUACGAGGU",
    "assigned-label": "N"
  },
  {
    "seq-text": "UUUUAGCAAUAUUACGCGUA",
    "assigned-label": "N"
  },
  {
    "seq-text": "CGGAAGCAAUAUUACGUGAC",
    "assigned-label": "N"
  },
  {
    "seq-text": "CGUAAGCAAUAUUACGGGGG",
    "assigned-label": "N"
  },
  {
    "seq-text": "CCUAAGCAAUAUUACGCGAU",
    "assigned-label": "N"
  },
  {
    "seq-text": "CCUUAGCAAUAUUACGUCGA",
    "assigned-label": "N"
  },
  {
    "seq-text": "AUACAGCAAUAUUACGAGUC",
    "assigned-label": "N"
  },
  {
    "seq-text": "CGCAAGCAAUAUUACGCGGC",
    "assigned-label": "N"
  },
  {
    "seq-text": "GAGGAGCAAUAUUACGCUUU",
    "assigned-label": "N"
  },
  {
    "seq-text": "AACAAGCAAUAUUACGGAUA",
    "assigned-label": "N"
  },
  {
    "seq-text": "GACGAGCAAUAUUACGGAUU",
    "assigned-label": "N"
  }
]

----------
- experimental-protocol: self-splicing fitness, log relative to wild type (ln ratio); higher = more splicing; Tetrahymena group I intron in knt gene, E. coli kanamycin selection, DiMSum; sequences stand for … in CUCUCU…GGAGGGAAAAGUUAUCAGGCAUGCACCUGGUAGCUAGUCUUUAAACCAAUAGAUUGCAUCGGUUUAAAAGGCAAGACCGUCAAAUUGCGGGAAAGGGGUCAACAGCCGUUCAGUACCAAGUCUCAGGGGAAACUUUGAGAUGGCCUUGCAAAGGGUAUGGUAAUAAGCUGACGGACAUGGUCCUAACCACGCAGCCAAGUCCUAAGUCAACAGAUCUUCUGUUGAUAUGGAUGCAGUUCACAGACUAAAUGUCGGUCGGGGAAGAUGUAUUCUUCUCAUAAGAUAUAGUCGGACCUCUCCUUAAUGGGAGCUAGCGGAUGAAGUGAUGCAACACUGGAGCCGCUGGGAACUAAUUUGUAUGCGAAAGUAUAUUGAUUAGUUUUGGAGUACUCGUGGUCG
- condition-summary: 30 °C
Label Satisfied for high-side self-splicing fitness (ln) (at or above -2) and Not satisfied for low-side self-splicing fitness (ln) (below it).

[
  {
    "seq-text": "UUCAAGCAAUAUUACGGAUC",
    "assigned-label": "Satisfied"
  },
  {
    "seq-text": "CUUGAGCAAUAUUACGUUUG",
    "assigned-label": "Not satisfied"
  },
  {
    "seq-text": "UCCUAGCAAUAUUACGUCAU",
    "assigned-label": "Not satisfied"
  },
  {
    "seq-text": "GUGAAGCAAUAUUACGAAUC",
    "assigned-label": "Satisfied"
  },
  {
    "seq-text": "GAUCAGCAAUAUUACGCGGC",
    "assigned-label": "Not satisfied"
  },
  {
    "seq-text": "GACUAGCAAUAUUACGCUAA",
    "assigned-label": "Satisfied"
  },
  {
    "seq-text": "CAAAAGCAAUAUUACGCGGU",
    "assigned-label": "Not satisfied"
  },
  {
    "seq-text": "UCGAAGCAAUAUUACGGCUU",
    "assigned-label": "Not satisfied"
  },
  {
    "seq-text": "AGAAAGCAAUAUUACGCGAC",
    "assigned-label": "Not satisfied"
  },
  {
    "seq-text": "CUCUAGCAAUAUUACGCAGG",
    "assigned-label": "Not satisfied"
  },
  {
    "seq-text": "GCAUAGCAAUAUUACGCCCU",
    "assigned-label": "Satisfied"
  },
  {
    "seq-text": "AGCAAGCAAUAUUACGCCAG",
    "assigned-label": "Not satisfied"
  },
  {
    "seq-text": "GGGUAGCAAUAUUACGCUUC",
    "assigned-label": "Not satisfied"
  },
  {
    "seq-text": "UAUCAGCAAUAUUACGGUUU",
    "assigned-label": "Satisfied"
  },
  {
    "seq-text": "ACGUAGCAAUAUUACGCCAU",
    "assigned-label": "Not satisfied"
  },
  {
    "seq-text": "CCUUAGCAAUAUUACGAAUG",
    "assigned-label": "Satisfied"
  },
  {
    "seq-text": "AGAGAGCAAUAUUACGAUUU",
    "assigned-label": "Satisfied"
  },
  {
    "seq-text": "GCUAAGCAAUAUUACGGCGG",
    "assigned-label": "Not satisfied"
  },
  {
    "seq-text": "UGACAGCAAUAUUACGGCCG",
    "assigned-label": "Satisfied"
  },
  {
    "seq-text": "AUUCAGCAAUAUUACGUAAG",
    "assigned-label": "Satisfied"
  },
  {
    "seq-text": "CCUCAGCAAUAUUACGUUAG",
    "assigned-label": "Not satisfied"
  },
  {
    "seq-text": "GUUCAGCAAUAUUACGUUUC",
    "assigned-label": "Satisfied"
  },
  {
    "seq-text": "UCAAAGCAAUAUUACGAUAC",
    "assigned-label": "Not satisfied"
  },
  {
    "seq-text": "UGGGAGCAAUAUUACGGGAA",
    "assigned-label": "Not satisfied"
  },
  {
    "seq-text": "AGGAAGCAAUAUUACGAUAA",
    "assigned-label": "Satisfied"
  },
  {
    "seq-text": "CUUAAGCAAUAUUACGGUUC",
    "assigned-label": "Not satisfied"
  },
  {
    "seq-text": "UACCAGCAAUAUUACGGGUG",
    "assigned-label": "Not satisfied"
  },
  {
    "seq-text": "GCAAAGCAAUAUUACGACUC",
    "assigned-label": "Satisfied"
  },
  {
    "seq-text": "CUACAGCAAUAUUACGGGUC",
    "assigned-label": "Not satisfied"
  },
  {
    "seq-text": "AAAAAGCAAUAUUACGGUAU",
    "assigned-label": "Not satisfied"
  },
  {
    "seq-text": "UAGGAGCAAUAUUACGGCAU",
    "assigned-label": "Not satisfied"
  },
  {
    "seq-text": "GGAAAGCAAUAUUACGCCUA",
    "assigned-label": "Satisfied"
  },
  {
    "seq-text": "UAAUAGCAAUAUUACGCCGU",
    "assigned-label": "Not satisfied"
  },
  {
    "seq-text": "UCAAAGCAAUAUUACGAAUA",
    "assigned-label": "Satisfied"
  }
]

FYI, the data here is from the supplement of paper PMC7877785.
